meta.source: the nanobody polyreactivity screen of Harvey et al. (2022)

- assay-info: yeast display, Sf9 membrane polyspecificity reagent, FACS + sequencing; frameworks hold sequencing errors
test-readout: polyreactivity (PSR sort gate)

Answered cases to consult:
residues	polyreactivity (PSR sort gate)
QVQLVESGGGLVQAGGSLRLSCAASGNTFRIYTMVWYRQAPGKERELVATITRRGGSTYYADSVKGRFTISRDNAMNTVYLQMNSLKPEDTVVYYCAARVRGTGVYGGYNYWGQGTLVTVSS	high polyreactivity
QVQLVESGGGLVQAGGSLRLSCAASGRIFSRYTMGWYRQAPGKERELVAGITRGGGSTYYADSVKGRFTISRDNAKNTVYLQMNSLKPEDNAVYYCNAETSYAWWHYDYWGQGTQVTVSS	low polyreactivity
QVQLVESAGGLVQAGGSLRLSCAASGITLSYNAMGWYRQAPGKERELVAAISARGGSTYYADSVKGRFTISRDPAKNTVYLQMYSLKPEDTAVYYCAAPRGWRQNKYDYWGQVTQVTVSS	high polyreactivity
QVQLVESGGGLVQAGGSLRLSCAASGLTFQSYAMGWYRQAPGKEREFAYYADSVKGRFTMSRDNAKNTVYLQMNSLKPEDTAVYYCNGADDEGDRPITQVGYDYWGQGTQVTVSS	low polyreactivity
QVQLVESGGGLVQAGGSLRLSCAASGRIFLINAMGWYRQAPGKESEFVAAIRTGGNTYYADSVKGRFTLSRDNAKNTVYLQMNSLKPEDTAVYYCAADRIYPYYRWSGAHRSDVDYWGQGTQVTVSS	low polyreactivity
QVQLVESGGGLVQAGGSLRLSCAASGGTIVWNAMGWYRQAPGKEREFVAAITSSGGSTYYADSVKGRFTITRDYAKNTVYLQINSLKPEDTAVDYCNVDTHSSYEFNSWGQGTQVTVSS	low polyreactivity
QVHLVESGGGLDQAGGSLRLSCAASGSIFPHNAMVWYIQAPGKERELVASITSRCGITYYADSVKGRFTISRDNAKNTVYLQMNRLKPEDTAVYYCAARNNVEYLTIYKPYSFGSDSWGQGTQVTVSS	low polyreactivity
QVQLVESGGGLVQAGGSLRLSCAASGFTFTYYAMGWYRQAPGKERELVAVITRSGNTYYADSVKGRFTISRDNAKNTVYLQMNSLKPEDTAVYYCATVGQRLHLGYWGQGTQVTVSS	high polyreactivity
QVQLVESGGGLVQAGGSLRLICAASGTIFDIYAMGWYRQAPGKERELVAAISLSAGSTYYADSVKGRFTISRDNAKNTVYLQMNSLKPEDTAGYYFNADGWYGYWGQGTQVTVSS	low polyreactivity
QVHLVESGGALVQAGGSLRLSCAASGNTFNANAMGWYRQAPGKERELVAVISANGGRTYYADSVKGRFTISRDNAKNTVYLQMNSLIPEDTAVYYCAADSSGEYPGGYWGQGTQVTVSS	low polyreactivity

Look at this sequence and give its reported polyreactivity (PSR sort gate). "QVQLVESGGGLVQAGGSLRLSCAPSGRIIGTNAMRWYIQAPRKERELVAAITWSGGSTYYADSVKGRFTISRDNAKNTVFLQMISLKPEDTAVYYCAKDYGYGPRFYYWGQGTQLTVSS"
high polyreactivity

Field request: polyreactivity (PSR sort gate) | item: "QVQLVESGGGLVQAGGSLRLSCAASGLTFAYYVMGSYRQAPWKERELVAAISRRGGSTYYADSVKGRFTISRDNAKNTVYLQMNSLKPEDTAVYYCNTDWPLPNGGEPGYWGQGTQVTVSS"
high polyreactivity

Sample "QVQLVESGGGLVQAGGSLRLSCAASGSTLAIYAKGWYRQAPGKERELVAAISGGGSTYADSVKGRFTISRDNAKNTVYLQMNSLKPEDTAVYYCNADGWGDRFWSNFRFDYWGQGTQVTVSS" — what was its polyreactivity (PSR sort gate)?
low polyreactivity
